target: ALK5 kinase (Homo sapiens, UniProt P36897); construct: GST; purchased Thermo Fisher Scientific Solutions; assay: Activity inhibition test on ALK5 enzyme (LanthaScreen Eu binding kinase assay); conditions: kinase tracer 178, 60 minutes at room temperature
Sequence (P36897 34-503): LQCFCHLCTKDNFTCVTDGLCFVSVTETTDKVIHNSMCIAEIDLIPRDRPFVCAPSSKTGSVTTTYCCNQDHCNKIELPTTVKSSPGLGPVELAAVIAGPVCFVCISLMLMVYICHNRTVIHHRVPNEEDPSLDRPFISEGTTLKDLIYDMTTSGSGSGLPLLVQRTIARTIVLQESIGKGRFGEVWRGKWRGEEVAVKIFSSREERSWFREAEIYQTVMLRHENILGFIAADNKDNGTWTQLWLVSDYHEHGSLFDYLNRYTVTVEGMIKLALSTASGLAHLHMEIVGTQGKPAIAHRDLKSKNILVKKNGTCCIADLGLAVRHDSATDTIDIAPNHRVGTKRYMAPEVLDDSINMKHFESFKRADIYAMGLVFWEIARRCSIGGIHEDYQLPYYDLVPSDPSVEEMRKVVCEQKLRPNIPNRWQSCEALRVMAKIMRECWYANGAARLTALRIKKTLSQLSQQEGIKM
measured_attribute: IC50

Consider the reported IC50 for these compounds:
structure_notation=CC(=O)N1CCN(c2ccc(NC(=O)c3cc(-c4ccc5nccnc5c4)n(-c4cccc(C)n4)n3)cc2)CC1 measured_attribute=IC50 result="10 to 100 nM"
structure_notation=Cc1cccc(-n2nc(C(=O)Nc3cccc(N(C)C)c3)cc2-c2ccc3ncnn3c2)n1 measured_attribute=IC50 result="10 to 100 nM"
structure_notation=COc1ccc(CNC(=O)c2cc(-c3ccc4ncnn4c3)n(-c3cccc(C)n3)n2)cc1 measured_attribute=IC50 result="10 to 100 nM"
structure_notation=COc1ccc(NC(=O)c2cc(-c3ccc4nccnc4c3)n(-c3cccc(C(F)(F)F)n3)n2)cc1 measured_attribute=IC50 result="> 100 nM"
structure_notation=CSc1ccc(NC(=O)c2cc(-c3ccc4ncnn4c3)n(-c3cccc(C)n3)n2)cc1 measured_attribute=IC50 result="10 to 100 nM"
structure_notation=Cc1cccc(-n2nc(C(=O)Nc3ccc4c(c3)OCO4)cc2-c2ccc3nccnc3c2)n1 measured_attribute=IC50 result="≤ 100 nM"

Query: Read the entry Cc1cccc(-n2nc(C(=O)Nc3ccc4c(c3)OCO4)cc2-c2ccc3ncsc3c2)n1 and write its reported IC50.
Result: < 10 nM

Query: Read the entry Cc1cccc(-n2nc(C(=O)Nc3ccccc3F)cc2-c2ccnc3ccccc23)n1 and write its reported IC50.
Result: > 100 nM

Query: Read the entry Cc1cccc(-n2nc(C(=O)Nc3ccc(N4CCN(C)CC4)cc3)cc2-c2ccc3nccnc3c2)n1 and write its reported IC50.
Result: 10 to 100 nM

Query: Read the entry CNC(=O)c1ccc(NC(=O)c2cc(-c3ccc4ncsc4c3)n(-c3cccc(C)n3)n2)cc1 and write its reported IC50.
Result: < 10 nM

Query: Read the entry Cc1cccc(-n2nc(C(=O)Nc3ccc(Cl)cc3F)cc2-c2ccc3ncnn3c2)n1 and write its reported IC50.
Result: 10 to 100 nM

Query: Read the entry CCOC(=O)c1cccc(NC(=O)c2cc(-c3ccc4ncsc4c3)n(-c3cccc(C)n3)n2)c1 and write its reported IC50.
Result: ~100 nM

Query: Read the entry Cc1cccc(NC(=O)c2cc(-c3ccc4ncnn4c3)n(-c3cccc(C)n3)n2)c1 and write its reported IC50.
Result: ~10 nM

Query: Read the entry COc1cccc(CNC(=O)c2cc(-c3ccc4ncnn4c3)n(-c3cccc(C)n3)n2)c1 and write its reported IC50.
Result: 10 to 100 nM

Query: Read the entry CC(=O)c1ccc(NC(=O)c2cc(-c3ccc4ncnn4c3)n(-c3cccc(C)n3)n2)cc1 and write its reported IC50.
Result: 10 to 100 nM

Numbers sourced from patent US10954232B2.
